# tested-system: SAMHD1 (residues 115 to 626) (Homo sapiens, UniProt Q9Y3Z3)
# Construct: The catalytic domain of SAMHD1 (residues 115 to 626) was expressed and purified as previously described
# Sequence (Q9Y3Z3 115-626): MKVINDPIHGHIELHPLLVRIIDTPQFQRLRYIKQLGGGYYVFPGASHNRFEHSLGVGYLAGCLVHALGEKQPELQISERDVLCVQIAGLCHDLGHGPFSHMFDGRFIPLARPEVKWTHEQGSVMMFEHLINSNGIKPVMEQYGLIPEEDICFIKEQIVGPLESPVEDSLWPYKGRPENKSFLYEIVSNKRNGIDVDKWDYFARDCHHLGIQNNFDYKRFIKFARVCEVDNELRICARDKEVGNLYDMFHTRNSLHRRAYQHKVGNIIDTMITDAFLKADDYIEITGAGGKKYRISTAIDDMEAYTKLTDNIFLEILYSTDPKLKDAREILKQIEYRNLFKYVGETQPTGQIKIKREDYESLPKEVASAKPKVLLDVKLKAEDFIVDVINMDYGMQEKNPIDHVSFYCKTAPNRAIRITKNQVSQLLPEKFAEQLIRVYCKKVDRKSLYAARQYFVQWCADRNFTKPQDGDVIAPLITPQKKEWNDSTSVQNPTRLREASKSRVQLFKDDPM
# assay-protocol: Continuous enzyme-coupled (Ppx1 / MDCC-PBP) real-time assay of SAMHD1 triphosphohydrolase activity
quantity-name: EC50 (µM)
Quick reminder: number only, in µM, skip the unit.

Documented EC50 of Nc1nc2c(ncn2COCCOP(=O)(O)OP(=O)(O)OP(=O)(O)O)c(=O)[nH]1 [Acyclovir-TP, acyclovir triphosphate] : 15.6

###

# tested-system: SAMHD1 (residues 115 to 626) (Homo sapiens)
quantity-name: Ki (nM)
Quick reminder: number only, in nM, skip the unit.

Documented Ki of `Nc1ncnc2c1ncn2[C@H]1C[C@H](O)[C@@H](COP(=O)(O)NP(=O)(O)OP(=O)(O)O)O1` : 1130
